# Target Or Test System: guinea pig trachea (β2) (Cavia porcellus)
# Construct: The trachea was dissected from guinea-pigs; from tissue; host or cells: guinea-pig tracheal rings (tracheal smooth muscle)
# Sequence (Q8K4Z4 whole entry): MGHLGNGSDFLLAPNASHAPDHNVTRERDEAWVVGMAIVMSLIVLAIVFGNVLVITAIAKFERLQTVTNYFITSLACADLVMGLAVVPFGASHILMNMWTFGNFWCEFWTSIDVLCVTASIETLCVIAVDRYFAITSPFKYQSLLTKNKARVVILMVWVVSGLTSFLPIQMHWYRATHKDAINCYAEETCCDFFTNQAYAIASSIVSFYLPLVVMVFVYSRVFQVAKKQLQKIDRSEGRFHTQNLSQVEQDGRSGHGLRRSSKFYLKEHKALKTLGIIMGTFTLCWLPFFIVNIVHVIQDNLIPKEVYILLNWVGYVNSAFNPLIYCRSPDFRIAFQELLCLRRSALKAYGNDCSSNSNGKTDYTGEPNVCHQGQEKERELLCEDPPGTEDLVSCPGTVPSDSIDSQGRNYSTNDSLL
# Assay Notes: Guinea-pig tracheal ring test: inhibition of isoprenaline-induced relaxation (β2-adrenergic receptor blocking activity, in vitro)
# Condition Info: tracheal ring, methacholine 1 μg/ml, isoprenaline 0.08 μg/ml, 30 min, 35° C., probit analysis; read-out: ED50 value on guinea pig trachea (β2) (converted)
Listing: IC50 of selected molecules
Value Kind: IC50 (µM)

[[record]]
molecule = "Cc1cc(C)c2c(c1)OC(C(O)CNCC(O)C1CCc3ccccc3O1)CC2 (centres unmarked) [Compound 103]"
value_kind = "IC50"
censor_symbol = ">"
measurement = 25.2

[[record]]
molecule = "OC(CNCC(O)C1CCc2ccccc2O1)C1CCc2ccccc2O1 (centres unmarked) [Compound 79]"
value_kind = "IC50"
censor_symbol = "="
measurement = 6.77

[[record]]
molecule = "Cc1cc(C)c2c(c1)OC(C(O)CNCC(O)C1CCc3ccccc3O1)CC2 (centres unmarked) [Compound 104]"
value_kind = "IC50"
censor_symbol = ">"
measurement = 6.29

[[record]]
molecule = "CC(O)(CNCC(O)C1CCc2ccccc2O1)C1CCc2ccccc2O1 (centres unmarked) [Compound 92]"
value_kind = "IC50"
censor_symbol = "="
measurement = 13

[[record]]
molecule = "OC(CNCC(O)C1CCc2ccccc2O1)C1CCc2ccccc2O1 (centres unmarked) [Compound 138]"
value_kind = "IC50"
censor_symbol = ">"
measurement = 27.1

[[record]]
molecule = "OC(CNCC(O)C1CCc2ccccc2O1)C1CCc2ccccc2O1 (centres unmarked) [Compound 75]"
value_kind = "IC50"
censor_symbol = "="
measurement = 7.58

[[record]]
molecule = "CC(=O)Nc1ccc2c(c1)CCC(C(O)CNCC(O)C1CCc3ccccc3O1)O2 (centres unmarked) [Compound 96]"
value_kind = "IC50"
censor_symbol = "="
measurement = 0.328

[[record]]
molecule = "Cc1ccc2c(c1)CCC(C(O)CNCC(O)C1CCc3ccccc3O1)O2 (centres unmarked) [Compound 89]"
value_kind = "IC50"
censor_symbol = "="
measurement = 23.2

[[record]]
molecule = "Cc1ccc2c(c1)OC(C(O)CNCC(O)C1CCc3ccccc3O1)CC2 (centres unmarked) [Compound 98]"
value_kind = "IC50"
censor_symbol = "="
measurement = 15.6

[[record]]
molecule = "Cc1ccc2c(c1)CCC(C(O)CNCC(O)C1CCc3ccccc3O1)O2 (centres unmarked) [Compound 93]"
value_kind = "IC50"
censor_symbol = "="
measurement = 5.74

[[record]]
molecule = "OC(CNCC(O)C1CCc2cc(F)ccc2O1)C1CCc2ccccc2O1 (centres unmarked) [Compound 91]"
value_kind = "IC50"
censor_symbol = "="
measurement = 12.9

